test: growth inhibitors of tim10-1 mutant yeast, primary screen, luminescence, uHTS (AID 463190);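 also: mutant grown at 25 °C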; details: S. cerevisiae tim10-1 ts strain growth, BacTiter-Glo, 24 h; at 20 µM
The campaign covered roughly 330,000 compounds. About 7,300 (2.2%) were called active.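 The calls were made as follows: active = inhibition of at least 40%; inactive = the rest.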 The sample as a whole holds a higher share of actives than the screen did.
Thanks in advance; please answer with one of these: active, inactive

Field: example entries. Status: answers known.
| Compound | Label class |
| --- | --- |
| COc1ccc(N(C)C(=O)C2CCN(S(=O)(=O)c3cccc4nsnc34)CC2)cc1 | inactive |
| CCCCn1ccnc1C(=O)c1cccc(S(=O)(=O)N2c3ccccc3CC2C)c1 (configuration not stated) | inactive |
| Cc1oc(C(N)=O)cc1COc1ccc(C(N)=O)cc1 | inactive |

stdin: Please let me know the test result on file for `CCn1cc(C(=O)Nc2cc(C)ccc2C)c(=O)c2ccc(C)nc21` .
stdout: inactive

stdin: Please let me know the test result on file for COc1ccc(NC(=S)N2N=CCC2c2ccccc2)cc1 (configuration not stated) .
stdout: active

stdin: Please let me know the test result on file for `CN(C)CCCN(C(=O)c1ccc(S(=O)(=O)N2CCCCCC2)cc1)c1nc2cc3c(cc2s1)OCCO3` .
stdout: inactive

stdin: Please let me know the test result on file for CCC(C)N(C)C1CCN(C(=S)Nc2ccc(OC)cc2)CC1 (configuration not stated) .
stdout: inactive

stdin: Please let me know the test result on file for COc1ccc(C2=NN(C(C)=O)C(c3ccccc3)C2)cc1 (configuration not stated) .
stdout: inactive

stdin: Please let me know the test result on file for `FC(F)(F)c1cccc(NC(=S)Nc2cccc(Cl)c2)c1` .
stdout: active

stdin: Please let me know the test result on file for `O=C(O)c1ccn(COc2ccc(Br)cc2)n1` .
stdout: inactive

###

assay: growth inhibitors of tim10-1 mutant yeast, primary screen, luminescence, uHTS (AID 463190);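 also: mutant grown at 25 °C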; settings: S. cerevisiae tim10-1 ts strain growth, BacTiter-Glo, 24 h; at 20 µM; active compounds read high
Among all 330,000 compounds or so, about 7,300 (2.2%) were called active. Shown is part of a subset that was picked to be rich in actives.
Label no if inhibition falls below 20%; label yes in every other case.

stdin: Is inhibition for `CCNc1nc(NCC)nc(N(C)n2cnnc2)n1` at or above 20%?
stdout: no

###

experiment: growth inhibitors of tim10-1 mutant yeast, primary screen, luminescence, uHTS (AID 463190);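 also: mutant grown at 25 °C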; conditions: S. cerevisiae tim10-1 ts strain growth, BacTiter-Glo, 24 h; at 20 µM
Screen size: about 330,000 compounds; about 7,300 (2.2%) were called active.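 How the source made its calls: active means inhibition of at least 40%; inactive means the rest.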 For the sample, actives were picked, then their nearest neighbours and some compounds at random.
Thanks in advance; please answer with one of these: active, inactive

| Molecule | Label class |
| --- | --- |
| CCOc1ccc(CCNC(=O)C2=C(C)C(=O)OC23CCC(C)CC3)cc1OCC (stereo unspecified) | inactive |

stdin: Please let me know the test result on file for `O=[N+]([O-])c1cc(C(F)(F)F)ccc1NN=C1CCCC1` .
stdout: inactive

stdin: Please let me know the test result on file for `ON=C1/C(=N\O)CC2(C/C1=N/O)OCCO2` .
stdout: inactive

stdin: Please let me know the test result on file for `Nc1ccccc1Sc1ccc(C(F)(F)F)cc1[N+](=O)[O-]` .
stdout: active

stdin: Please let me know the test result on file for CCC(NC(=O)c1ccccc1NC(=O)c1ccccc1)C(=O)NNC(=O)CSc1nc2ccccc2o1 (stereo unspecified) .
stdout: inactive

stdin: Please let me know the test result on file for `O=c1nc(N2CCOCC2)nc2n1CCO2` .
stdout: inactive

stdin: Please let me know the test result on file for `COC(=O)CNC(=O)c1cc(-c2ccncc2)nc2ccccc12` .
stdout: inactive

stdin: Please let me know the test result on file for `N/C(=N\OC(=O)c1cc(-c2ccccc2)nc2ccccc12)c1ccncc1` .
stdout: active

stdin: Please let me know the test result on file for CCCC(NCC(=O)Nc1ccccc1C(=O)NC1CC1)c1ccccc1 (stereo unspecified) .
stdout: inactive

stdin: Please let me know the test result on file for CC(NC(=O)CN(C)S(=O)(=O)c1ccc(F)cc1)C1CC2CCC1C2 (stereo unspecified) .
stdout: inactive

stdin: Please let me know the test result on file for CCC1=[N+]([O-])C(C)(/C(C)=N\O)N(O)C1(C)C (stereo unspecified) .
stdout: inactive

stdin: Please let me know the test result on file for CC1CCCN(C(=O)c2ccc3c(c2)C(=O)N(CCC2=CCCCC2)C3=O)C1 (stereo unspecified) .
stdout: inactive

stdin: Please let me know the test result on file for COc1ccc(NC(=O)/C(Cl)=C(/Cl)S(=O)Cc2ccc(C)cc2)cn1 (stereo unspecified) .
stdout: inactive

stdin: Please let me know the test result on file for `CC(=O)Nc1ccc(S(=O)(=O)N2CCC(C(=O)NC3CC3)CC2)cc1` .
stdout: inactive

stdin: Please let me know the test result on file for COc1ccc2[nH]c3c(c2c1)CCN1C(=O)C(CC(=O)NCc2cccc(C(F)(F)F)c2)C[C@H](C(=O)N2CCOCC2)[C@@]31C (stereo partly specified) .
stdout: inactive

stdin: Please let me know the test result on file for `C/C(N)=C(/C#N)C(=O)COC(=O)c1cc(-c2ccc(C)cc2)nc2ccccc12` .
stdout: inactive

stdin: Please let me know the test result on file for `COc1ccc(CCNC(=O)c2cnc(Cl)c(Cl)c2)cc1` .
stdout: inactive
